biological target: Bromodomain-containing protein 4 (Homo sapiens, UniProt O60885); test: Binding affinity to BRD4-BD2 (unknown origin)
metricName: pKi
Expect pKi as a plain number equal to -log10 of the molar concentration.

Task: Missing value: pKi, Bromodomain-containing protein 4 (Homo sapiens, UniProt O60885), entry CCNC(=O)C1=CC2C(c3cc(S(=O)(=O)CC)ccc3Oc3c(C)cc(F)cc3C)=CN(C)C(=O)C2N1 (stereo unspecified) . Fill in?
Result: 8.89

----------
test system: MV4-11; assay: Antiproliferative activity against human MV4-11 cells by CCK-8 assay; type: functional, cell-based
metricName: IC50 (µM)
Give the number; µM is assumed, so skip it.

Task: Look up IC50: O=c1cc(-c2ccc(O)c(O)c2)oc2c(O)c(O)ccc12
Result: 30.2

----------
target: Bromodomain-containing protein 4 (Homo sapiens, UniProt O60885); assay: Binding affinity to BRD4-BD1 (unknown origin)
metricName: pKi
Expect pKi as a plain number equal to -log10 of the molar concentration.

Task: Look up pKi: CCNC(=O)C1=CC2C(c3cc(S(=O)(=O)CC)ccc3Oc3c(C)cc(F)cc3C)=CN(C)C(=O)C2N1 (stereo unspecified)
Result: 7.10
